Target: recombinant human JAK1 kinase domain protein (Residues 854-1154) (Homo sapiens, UniProt P23458)
Construct: human JAK1 kinase domain protein (Residues 854-1154)
Sequence (P23458 854-1154): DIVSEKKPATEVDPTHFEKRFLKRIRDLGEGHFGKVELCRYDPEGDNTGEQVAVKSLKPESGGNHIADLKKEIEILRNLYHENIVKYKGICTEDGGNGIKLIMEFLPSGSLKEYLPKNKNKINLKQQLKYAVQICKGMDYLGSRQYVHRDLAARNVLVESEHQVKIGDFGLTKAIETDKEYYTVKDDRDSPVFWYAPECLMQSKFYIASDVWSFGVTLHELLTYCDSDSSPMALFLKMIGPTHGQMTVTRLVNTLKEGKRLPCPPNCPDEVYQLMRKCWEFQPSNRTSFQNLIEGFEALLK
Assay Procedure: JAK1 biochemical assay (microfluidic mobility shift, peptide phosphorylation)
Experimental Conditions: 25 μM ATP, 1 nM total JAK1; read-out: Enzyme JAK1 Ki
Output fulfilled for records whose Ki is lower than 0.8 nM, not fulfilled for records at or above 0.8 nM.

>  <Compound>
CN1CCC(S(=O)(=O)c2ccc(OC(F)F)c(-c3nn(C)cc3NC(=O)c3cnn4cccnc34)c2)C1 (single isomer, unassigned) [Example 20]

>  <Label Class>
not fulfilled

$$$$
>  <Compound>
Cn1cc(NC(=O)c2cnn3cccnc23)c(-c2cc(S(=O)(=O)c3cnn(CCN)c3)ccc2OC(F)F)n1

>  <Label Class>
fulfilled

$$$$
>  <Compound>
CC(CO)S(=O)(=O)c1ccc(OC(F)F)c(-c2nn(C)cc2NC(=O)c2cnn3cccnc23)c1 (single isomer, unassigned) [Example 24]

>  <Label Class>
fulfilled

$$$$
>  <Compound>
N#CCn1cc(NC(=O)c2cnn3cccnc23)c(-c2cc(S(=O)(=O)C(F)F)ccc2OC(F)F)n1

>  <Label Class>
fulfilled

$$$$
>  <Compound>
CN1CC(n2cc(NC(=O)c3cnn4cccnc34)c(-c3cc(S(=O)(=O)C4CC4)ccc3OC(F)F)n2)C1

>  <Label Class>
not fulfilled

$$$$
>  <Compound>
CN1CC(S(=O)(=O)c2ccc(OC(F)F)c(-c3nn(C)cc3NC(=O)c3cnn4cccnc34)c2)C1

>  <Label Class>
not fulfilled

$$$$
>  <Compound>
CN1C=Cc2cc(S(=O)(=O)c3ccc(OC(F)F)c(-c4nn(C)cc4NC(=O)c4cnn5cccnc45)c3)ccc2C1

>  <Label Class>
not fulfilled

$$$$
>  <Compound>
CNCCn1cc(S(=O)(=O)c2ccc(OC(F)F)c(-c3nn(C)cc3NC(=O)c3cnn4cccnc34)c2)cn1

>  <Label Class>
fulfilled

$$$$
>  <Compound>
Cn1cc(NC(=O)c2cnn3cccnc23)c(-c2cc(S(=O)(=O)C3CC3)ccc2OC(F)F)n1

>  <Label Class>
fulfilled

$$$$
>  <Compound>
Cn1cc(NC(=O)c2cnn3cccnc23)c(-c2cc(S(C)(=O)=O)ccc2OC(F)F)n1

>  <Label Class>
fulfilled

$$$$

----------
Assay Procedure: Cell cytotoxicity assay A549 (CellTiter-Glo, 72 hours)
Type: cell-based
Experimental Conditions: human, A549 cells, Table 3; 72 hours, top concentration of 50 μM; read-out: Cytotox A549 EC50
Reported EC50 at 72 h by item:
Measurement Label: EC50 at 72 h

>  <Molecule>
N#CCn1cc(NC(=O)c2cnn3cccnc23)c(-c2cc(S(=O)(=O)C3CC3)ccc2OC(F)F)n1

>  <Value Observed>
≥ 50 µM

$$$$
>  <Molecule>
Cn1cc(NC(=O)c2cnn3cccnc23)c(-c2cc(S(=O)(=O)C3CCCNC3)ccc2OC(F)F)n1 (single isomer, unassigned)

>  <Value Observed>
≥ 50 µM

$$$$
>  <Molecule>
Cn1cc(NC(=O)c2cnn3cccnc23)c(-c2cc(S(=O)(=O)C3CC3)ccc2OC(F)F)n1

>  <Value Observed>
≥ 50 µM

$$$$
>  <Molecule>
Cn1cc(NC(=O)c2cnn3cccnc23)c(-c2cc3c(cc2OC(F)F)NCCS3(=O)=O)n1

>  <Value Observed>
≥ 50 µM

$$$$
>  <Molecule>
CN1CCC[C@H]1Cn1cc(NC(=O)c2cnn3cccnc23)c(-c2cc(S(C)(=O)=O)ccc2OC(F)F)n1

>  <Value Observed>
≥ 50 µM

$$$$
>  <Molecule>
Cn1cc(NC(=O)c2cnn3cccnc23)c(-c2cc(S(=O)(=O)c3ccccc3)ccc2OC(F)F)n1

>  <Value Observed>
≥ 50 µM

$$$$
>  <Molecule>
COc1cccc(S(=O)(=O)c2ccc(OC(F)F)c(-c3nn(C)cc3NC(=O)c3cnn4cccnc34)c2)c1

>  <Value Observed>
≥ 50 µM

$$$$
>  <Molecule>
CN1CCCC1CCn1cc(S(=O)(=O)c2ccc(OC(F)F)c(-c3nn(C)cc3NC(=O)c3cnn4cccnc34)c2)cn1 (stereo in doubt)

>  <Value Observed>
≥ 50 µM

$$$$
>  <Molecule>
Cn1cc(NC(=O)c2cnn3cccnc23)c(-c2cc(S(=O)(=O)CCCO)ccc2OC(F)F)n1

>  <Value Observed>
≥ 50 µM

$$$$
>  <Molecule>
CN(CCO)S(=O)(=O)c1ccc(OC(F)F)c(-c2nn(C)cc2NC(=O)c2cnn3cccnc23)c1

>  <Value Observed>
≥ 50 µM

$$$$
>  <Molecule>
COCCS(=O)(=O)c1ccc(OC(F)F)c(-c2nn(C)cc2NC(=O)c2cnn3cccnc23)c1

>  <Value Observed>
≥ 50 µM

$$$$
>  <Molecule>
Cn1cc(NC(=O)c2cnn3cccnc23)c(-c2cc(S(=O)(=O)c3cn[nH]c3)ccc2OC(F)F)n1

>  <Value Observed>
≥ 50 µM

$$$$
>  <Molecule>
CC(O)C(C)S(=O)(=O)c1ccc(OC(F)F)c(-c2nn(C)cc2NC(=O)c2cnn3cccnc23)c1 (single isomer, unassigned)

>  <Value Observed>
≥ 50 µM

$$$$
>  <Molecule>
Cn1cc(NC(=O)c2cnn3cccnc23)c(-c2cc(S(=O)(=O)c3ccncc3)ccc2OC(F)F)n1

>  <Value Observed>
7.4 µM

$$$$
>  <Molecule>
Cn1cc(NC(=O)c2cnn3cccnc23)c(-c2cc(S(=O)(=O)CCO)ccc2OC(F)F)n1

>  <Value Observed>
45.5 µM

$$$$
>  <Molecule>
CC(CO)S(=O)(=O)c1ccc(OC(F)F)c(-c2nn(C)cc2NC(=O)c2cnn3cccnc23)c1 (single isomer, unassigned)

>  <Value Observed>
28 µM

$$$$
>  <Molecule>
CN(C)CCS(=O)(=O)c1ccc(OC(F)F)c(-c2nn(C)cc2NC(=O)c2cnn3cccnc23)c1

>  <Value Observed>
4.1 µM

$$$$

----------
Assay Procedure: Cell cytotoxicity assay HEK-293T (CellTiter-Glo, 72 hours)
Format: cell-based
Experimental Conditions: human, HEK-293T cells, Table 3; 72 hours, top concentration of 50 μM; read-out: Cytotox K-293 EC50
Output criterion met for records whose EC50 at 72 h is lower than 20 µM, criterion not met for records at or above 20 µM.

>  <Compound>
C[C@H](O)CS(=O)(=O)c1ccc(OC(F)F)c(-c2nn(C)cc2NC(=O)c2cnn3cccnc23)c1 (stereo in doubt)

>  <Label Class>
criterion not met

$$$$
>  <Compound>
CC(O)C(C)S(=O)(=O)c1ccc(OC(F)F)c(-c2nn(C)cc2NC(=O)c2cnn3cccnc23)c1 (single isomer, unassigned)

>  <Label Class>
criterion met

$$$$
>  <Compound>
CN1CCCC1CCn1cc(S(=O)(=O)c2ccc(OC(F)F)c(-c3nn(C)cc3NC(=O)c3cnn4cccnc34)c2)cn1 (stereo in doubt)

>  <Label Class>
criterion met

$$$$
>  <Compound>
Cn1cc(NC(=O)c2cnn3cccnc23)c(-c2cc(S(=O)(=O)CCO)ccc2OC(F)F)n1

>  <Label Class>
criterion met

$$$$
>  <Compound>
C[C@@H](O)CS(=O)(=O)c1ccc(OC(F)F)c(-c2nn(C)cc2NC(=O)c2cnn3cccnc23)c1 (stereo in doubt)

>  <Label Class>
criterion not met

$$$$
>  <Compound>
Cn1cc(NC(=O)c2cnn3cccnc23)c(-c2cc(S(=O)(=O)C3CC3)ccc2OC(F)F)n1

>  <Label Class>
criterion not met

$$$$
>  <Compound>
Cn1cc(NC(=O)c2cnn3cccnc23)c(-c2cc(S(=O)(=O)c3cn[nH]c3)ccc2OC(F)F)n1

>  <Label Class>
criterion not met

$$$$
>  <Compound>
CN(C)S(=O)(=O)c1ccc(OC(F)F)c(-c2nn(C)cc2NC(=O)c2cnn3cccnc23)c1

>  <Label Class>
criterion met

$$$$
>  <Compound>
N#CCn1cc(NC(=O)c2cnn3cccnc23)c(-c2cc(S(=O)(=O)C3CC3)ccc2OC(F)F)n1

>  <Label Class>
criterion not met

$$$$
>  <Compound>
Cn1cc(NC(=O)c2cnn3cccnc23)c(-c2cc(S(=O)(=O)c3ccccc3)ccc2OC(F)F)n1

>  <Label Class>
criterion not met

$$$$
>  <Compound>
Cn1cc(NC(=O)c2cnn3cccnc23)c(-c2cc(S(=O)(=O)C(F)F)ccc2OC(F)F)n1

>  <Label Class>
criterion met

$$$$
>  <Compound>
CNS(=O)(=O)c1ccc(OC(F)F)c(-c2nn(C)cc2NC(=O)c2cnn3cccnc23)c1

>  <Label Class>
criterion met

$$$$
>  <Compound>
Cn1cc(NC(=O)c2cnn3cccnc23)c(-c2cc(S(=O)(=O)c3ccn(C)c(=O)c3)ccc2OC(F)F)n1

>  <Label Class>
criterion met

$$$$
>  <Compound>
Cn1cc(NC(=O)c2cnn3cccnc23)c(-c2cc(S(=O)(=O)c3cccc(O)c3)ccc2OC(F)F)n1

>  <Label Class>
criterion met

$$$$
>  <Compound>
CCS(=O)(=O)c1ccc(OC(F)F)c(-c2nn(C)cc2NC(=O)c2cnn3cccnc23)c1

>  <Label Class>
criterion met

$$$$
